Experiment: Inhibition of horse liver alcohol dehydrogenase
Parameters: species or system Equus caballus
pIC50: −log10 of the molar value.
pIC50 reference

Here's what some known entries look like.
item-smiles	pIC50
CCc1nc(N)c2ncn([C@@H]3O[C@H](COP(=O)(O)OP(=O)(O)OC[C@H]4O[C@@H](c5nc(C(N)=O)cs5)[C@H](O)[C@@H]4O)[C@@H](O)[C@H]3O)c2n1	< 4.30
C#Cc1nc(N)c2ncn([C@@H]3O[C@H](COP(=O)(O)OP(=O)(O)OC[C@H]4O[C@@H](c5nc(C(N)=O)cs5)[C@H](O)[C@@H]4O)[C@@H](O)[C@H]3O)c2n1	< 4.30
C=Cc1nc(N)c2ncn([C@@H]3O[C@H](COP(=O)(O)OP(=O)(O)OC[C@H]4O[C@@H](c5nc(C(N)=O)cs5)[C@H](O)[C@@H]4O)[C@@H](O)[C@H]3O)c2n1	4.41

Task item: Look at this compound and give its reported pIC50. "NC(=O)c1csc([C@@H]2O[C@H](COP(=O)(O)OP(=O)(O)OC[C@H]3O[C@@H](n4cnc5c(N)nc(Nc6ccccc6)nc54)[C@H](O)[C@@H]3O)[C@@H](O)[C@H]2O)n1"
Reply: < 4.30

Task item: What about "COc1c(C)c2c(c(O)c1CCOP(=O)(O)CP(=O)(O)OC[C@H]1O[C@@H](n3cnc4c(N)nc(-c5ccccc5)nc43)[C@H](O)[C@@H]1O)C(=O)OC2" ?
Reply: < 4.30

Task item: Now consider "NC(=O)c1csc([C@@H]2O[C@H](COP(=O)(O)OP(=O)(O)OC[C@H]3O[C@@H](n4cnc5c(N)nc(N)nc54)[C@H](O)[C@@H]3O)[C@@H](O)[C@H]2O)n1" and answer again.
Reply: < 4.30

----------
Biological target: Malate dehydrogenase (Sus scrofa)
Test: Inhibition of porcine heart malate dehydrogenase
measured-attribute: IC50 (µM)

item-smiles	target-system	value-measured
COc1c(C)c2c(c(O)c1CCOP(=O)(O)CP(=O)(O)OC[C@H]1O[C@@H](n3cnc4c(N)nc(-c5ccccc5)nc43)[C@H](O)[C@@H]1O)C(=O)OC2	Malate dehydrogenase (Sus scrofa)	14.3
NC(=O)c1csc([C@@H]2O[C@H](COP(=O)(O)OP(=O)(O)OC[C@H]3O[C@@H](n4cnc5c(N)nc(NCCc6ccccc6)nc54)[C@H](O)[C@@H]3O)[C@@H](O)[C@H]2O)n1	Malate dehydrogenase (Sus scrofa)	12.7

----------
List of Ki tested on Inosine-5'-monophosphate dehydrogenase 1 (Homo sapiens).
Sequence (P20839 whole entry): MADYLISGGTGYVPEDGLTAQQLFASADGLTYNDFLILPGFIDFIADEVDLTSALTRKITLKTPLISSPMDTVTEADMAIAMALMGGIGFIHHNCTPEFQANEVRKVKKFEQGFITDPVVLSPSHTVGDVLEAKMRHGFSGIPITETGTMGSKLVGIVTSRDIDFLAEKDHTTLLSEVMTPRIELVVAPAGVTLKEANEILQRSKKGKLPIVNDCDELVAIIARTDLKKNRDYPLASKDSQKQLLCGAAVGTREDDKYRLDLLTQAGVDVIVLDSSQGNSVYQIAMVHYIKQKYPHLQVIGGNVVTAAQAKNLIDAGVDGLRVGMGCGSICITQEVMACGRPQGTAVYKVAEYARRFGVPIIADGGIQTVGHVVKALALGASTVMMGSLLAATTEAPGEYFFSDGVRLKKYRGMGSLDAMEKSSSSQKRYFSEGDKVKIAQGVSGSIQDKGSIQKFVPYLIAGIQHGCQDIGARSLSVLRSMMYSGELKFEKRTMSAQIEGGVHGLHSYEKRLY
measured-attribute: Ki (µM)

I = COc1c(C)c2c(c(O)c1CCOP(=O)(O)CP(=O)(O)OC[C@H]1O[C@@H](n3cnc4c(N)nc(-c5ccccc5)nc43)[C@H](O)[C@@H]1O)C(=O)OC2
II = C#Cc1nc(N)c2ncn([C@@H]3O[C@H](COP(=O)(O)OP(=O)(O)OC[C@H]4O[C@@H](c5nc(C(N)=O)cs5)[C@H](O)[C@@H]4O)[C@@H](O)[C@H]3O)c2n1
Task item: I'm curious, which of these has a smaller Ki number: I or II ? Your choice should be expressed through its label.
Reply: II
(II: 0.01 µM, I: 0.066 µM)

----------
Tested on: K562
Experiment: Antiproliferative activity against human K562 cells after 72 hrs
Format: functional, cell-based
Settings: K562, 72 h
measured-attribute: IC50 (µM)

compound	value-measured
COc1c(C)c2c(c(O)c1C/C=C(\C)CCC(=O)O)C(=O)OC2	7.7

P = COc1c(C)c2c(c(O)c1CCOP(=O)(O)CP(=O)(O)OC[C@H]1O[C@@H](n3cnc4c(N)nc(-c5ccccc5)nc43)[C@H](O)[C@@H]1O)C(=O)OC2
Q = NC(=O)c1csc([C@@H]2O[C@H](COP(=O)(O)OP(=O)(O)OC[C@H]3O[C@@H](n4cnc5c(N)ncnc54)[C@H](O)[C@@H]3O)[C@@H](O)[C@H]2O)n1 [TIAZOFURIN ADENINE DINUCLEOTIDE]
Task item: Select the item with the higher value of IC50 from the options P and Q listed. Answer by quoting the chosen item's label.
Reply: Q

The origin of these recorded values is ChEMBL document CHEMBL1138261.
